Would you kindly list Inhibition Rate at 0.3 μM for each of these compounds?
# Test system: ACAT
# Procedure text: ACAT inhibitory activity (rabbit liver microsomal fraction)
# Type: biochemical, Japanese-White Rabbit
# Run parameters: [1-14C]oleyl-CoA and exogenous cholesterol
Answers are plain numbers, in %.

>>> numeric_readout("CCCCCN(CC#CC#CC(C)(C)C)CCNC(=O)CSc1cccc2ccccc12 [Example 2]")
76
>>> numeric_readout("CCCCN(CC#CC#CC(C)(C)C)CCNC(=O)CSc1cccc2ccccc12 [Example 34]")
61
>>> numeric_readout("CCCCCN(CC#CC#CC(C)(C)C)CCNC(=O)CSc1ccc2ccccc2c1 [Example 4]")
78
>>> numeric_readout("CCCCCN(CC#CC#CC(C)(C)C)CCNC(=O)C[S+]([O-])c1cccc2ccccc12 (centres unmarked) [Example 29]")
70
>>> numeric_readout("CCCCCN(CC#CC#CC(C)(C)C)CCNC(=O)CSc1ccc2oc3ccccc3c2c1 [Example 24]")
64

// each listed compound needs a value for Inhibition Rate at 0.3 μM
1. CN(C)c1ccc(NC(=O)N(Cc2cccc(CN(C(=O)Nc3ccc(N(C)C)cc3)C3CCCCCC3)c2)C2CCCCCC2)cc1.Cl.Cl [YM-17E, reference compound]
2. CCCCCN(C/C=C/C#CC(C)(C)C)CCNC(=O)CSc1cccc2ccccc12 [Example 1]
3. CC(C)CCCN(CC#CC#CC(C)(C)C)CCNC(=O)CSc1cccc2ccccc12 [Example 36]
4. CCCCCN(CC#CC#CC(C)(C)C)CCNC(=O)CSc1c(C)cccc1C [Example 11]
5. CCCCCN(CC#CC#CC(C)(C)C)CCNC(=O)CSc1ccc(C)c(C)c1 [Example 10]
6. CCCCCN(CC#CC#CC(C)(C)C)CCNC(=O)CSc1c2ccccc2cc2ccccc12 [Example 26]
7. CCCCCN(CCCC#CC(C)(C)C)CCNC(=O)CSc1cccc2ccccc12 [Example 3]

1. 50
2. 70
3. 75
4. 87
5. 84
6. 66
7. 68

// each listed compound needs a value for Inhibition Rate at 0.3 μM
1. CCCCC/C=C\C/C=C\CCCCCCCC(=O)NC(C)c1ccccc1 (stereo not drawn) [Melinamide, N-(α-methylbenzyl)linoleamide, reference compound]
2. CCCCCN(CC#CC#CC(C)(C)C)CCNC(=O)CS(=O)(=O)c1cccc2ccccc12 [Example 30]

[15, 75]
